Source of measurements: patent US20120045438A1

Molecular target: T1, human IL-13 R130Q variant (R110Q of the mature chain) (human, UniProt P35225 35-146, Biotinylated on amines (NHS-LC-biotin, 4:1) in ELISA, panning and competition assays. The letters are unchanged.)
T1 construct: R130Q counts from Met 1 of the signal peptide, R110Q on the mature chain; Bought from Peprotech; also called IL-13 R110Q; b-R130Q
T1 sequence (P35225 35-146 limits assumed, stated change not applied): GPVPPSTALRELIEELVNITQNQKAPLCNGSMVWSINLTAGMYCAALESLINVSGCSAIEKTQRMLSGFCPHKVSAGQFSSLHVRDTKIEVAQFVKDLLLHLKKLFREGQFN
Assay: single-point (10 nM) phage Fab ELISA on biotinylated IL-13 R130Q

binder	unit-of-measurement	% of Lc16Hc7
Phage # 83 Fab (IL-13-142 library) (Fab, V domains shown, Fab on phage pIX) VH: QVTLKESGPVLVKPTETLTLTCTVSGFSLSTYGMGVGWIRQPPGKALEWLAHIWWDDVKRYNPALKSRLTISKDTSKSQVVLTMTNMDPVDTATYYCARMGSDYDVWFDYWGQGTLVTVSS VL: DIQMTQSPSTLSASVGDRVTITCRASKSISKYLAWYQQKPGKAPKLLIYSGSTLQSGVPSRFSGSGSGTEFTLTISSLQPDDFATYYCQQHDMGPYTFGGGTKVEIK	%	145
Phage # 62 Fab (IL-13-142 library) (Fab, V domains shown, Fab on phage pIX; del = residue deleted) VH: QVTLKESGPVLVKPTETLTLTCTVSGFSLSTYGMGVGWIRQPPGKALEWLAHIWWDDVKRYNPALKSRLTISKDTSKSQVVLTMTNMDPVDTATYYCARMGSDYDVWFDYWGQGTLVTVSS VL: DIQMTQSPSTLSASVGDRVTITCRASKSISKYLAWYQQKPGKAPKLLIYSGSTLQSGVPSRFSGSGSGTEFTLTISSLQPDDFATYYCQQQDSPYTFGGGTKVEIK	%	185
Phage # 65 Fab (IL-13-142 library) (Fab, V domains shown, Fab on phage pIX) VH: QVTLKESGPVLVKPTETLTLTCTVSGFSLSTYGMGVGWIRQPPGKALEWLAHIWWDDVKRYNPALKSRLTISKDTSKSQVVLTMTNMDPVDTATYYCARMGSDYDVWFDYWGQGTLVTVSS VL: DIQMTQSPSTLSASVGDRVTITCRASKSISKYLAWYQQKPGKAPKLLIYSGSTLQSGVPSRFSGSGSGTEFTLTISSLQPDDFATYYCQQHDFVPYTFGGGTKVEIK	%	147
